Each recorded value in this set is attributed to ChEMBL document CHEMBL1201861.

tested on: HCE-4; test: cells; type: functional, cell-based; details: Homo sapiens;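 further: cell viability assay measuring inhibition of growth in the human HCE-4 cell line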
Description: SANGER: Inhibition of human HCE-4 cell growth in a cell viability assay.
pIC50: −log10 of the molar value.
recorded metric: pIC50

Here is how some compounds turned out for pIC50.
{"compound": "CC(=O)c1c(C)c2cnc(Nc3ccc(N4CCNCC4)cn3)nc2n(C2CCCC2)c1=O [PALBOCICLIB]", "pIC50": "< 5.40"}
{"compound": "Cc1n[nH]c2ccc(-c3cncc(OC[C@@H](N)Cc4c[nH]c5ccccc45)c3)cc12 [A-443654]", "pIC50": 6.98}
{"compound": "CCNc1cc(N[C@H]2CC[C@@H](O)CC2)nc(Nc2ccc3c(ccn3Cc3ccccc3)c2)n1", "pIC50": "< 5.29"}
{"compound": "Cc1[nH]c(/C=C2\\C(=O)Nc3ccc(S(=O)(=O)Cc4c(Cl)cccc4Cl)cc32)c(C)c1C(=O)N1CCC[C@@H]1CN1CCCC1 [PHA-665752]", "pIC50": "< 5.70"}

What value of pIC50 has been reported for the following compound? C/C=C(/C)C(=O)O[C@H]1C(C)=C2[C@H]([C@@H]1OC(=O)CCCCCCC)[C@@](C)(OC(C)=O)C[C@H](OC(=O)CCC)[C@@]1(O)[C@H]2OC(=O)[C@@]1(C)O [THAPSIGARGIN]
8.37

Next compound: C/C(O)=C(\C#N)C(=O)Nc1cc(Br)ccc1Br
< 4.80

Next compound: CCCS(=O)(=O)Nc1ccc(F)c(C(=O)c2c[nH]c3ncc(Cl)cc23)c1F [PLX-4720]
< 5.00

Next compound: Cn1cc(/C=C2\C(=O)Nc3cccnc32)c2ccccc21
< 5.70

Next compound: CCNC(=O)c1noc(-c2cc(C(C)C)c(O)cc2O)c1-c1ccc(CN2CCOCC2)cc1 [LUMINESPIB]
7.67

Next compound: COc1cc(C)c(Sc2cnc(NC(=O)c3ccc(CNC(C)C(C)(C)C)cc3)s2)cc1C(=O)N1CCN(C(C)=O)CC1 (stereo unspecified)
< 4.99

Next compound: Cc1nc(Nc2ncc(C(=O)Nc3c(C)cccc3Cl)s2)cc(N2CCN(CCO)CC2)n1 [DASATINIB]
6.58

* * *

In this section we review reported pIC50 values for a set of compounds.
system: SH-4; assay: cells; type: functional, cell-based; conditions: Homo sapiens;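 further: growth inhibition of SH-4 cells, read out with a cell viability assay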
Description: SANGER: Inhibition of human SH-4 cell growth in a cell viability assay.
In plain terms, pIC50 is the concentration in mol/L turned into minus its base-10 logarithm.

Here is how some compounds turned out for pIC50.
{"compound": "C/C=C(/C)C(=O)O[C@H]1C(C)=C2[C@H]([C@@H]1OC(=O)CCCCCCC)[C@@](C)(OC(C)=O)C[C@H](OC(=O)CCC)[C@@]1(O)[C@H]2OC(=O)[C@@]1(C)O [THAPSIGARGIN]", "tgt": "SH-4", "reading": 7.75}
{"compound": "Cn1c(=O)n(-c2ccc(C(C)(C)C#N)cc2)c2c3cc(-c4cnc5ccccc5c4)ccc3ncc21 [DACTOLISIB]", "tgt": "SH-4", "reading": 7.12}
{"compound": "CC[C@]1(O)C[C@@H]2CN(CCc3c([nH]c4ccccc34)[C@@](C(=O)OC)(c3cc4c(cc3OC)N(C)[C@H]3[C@@](O)(C(=O)OC)[C@H](OC(C)=O)[C@]5(CC)C=CCN6CC[C@]43[C@@H]65)C2)C1 [VINBLASTINE]", "tgt": "SH-4", "reading": 7.36}
{"compound": "Cc1n[nH]c2ccc(-c3cncc(OC[C@@H](N)Cc4c[nH]c5ccccc45)c3)cc12 [A-443654]", "tgt": "SH-4", "reading": 6.73}

What value of pIC50 has been reported for the following compound? Fc1cc(-c2cc[nH]/c(=N/c3ccc(-n4cnc(N5CCOCC5)n4)cc3)n2)cc(N2CCOCC2)c1
6.39
